measured.on: human glucagon receptor (Homo sapiens (Human))
Sequence (P47871 26-477): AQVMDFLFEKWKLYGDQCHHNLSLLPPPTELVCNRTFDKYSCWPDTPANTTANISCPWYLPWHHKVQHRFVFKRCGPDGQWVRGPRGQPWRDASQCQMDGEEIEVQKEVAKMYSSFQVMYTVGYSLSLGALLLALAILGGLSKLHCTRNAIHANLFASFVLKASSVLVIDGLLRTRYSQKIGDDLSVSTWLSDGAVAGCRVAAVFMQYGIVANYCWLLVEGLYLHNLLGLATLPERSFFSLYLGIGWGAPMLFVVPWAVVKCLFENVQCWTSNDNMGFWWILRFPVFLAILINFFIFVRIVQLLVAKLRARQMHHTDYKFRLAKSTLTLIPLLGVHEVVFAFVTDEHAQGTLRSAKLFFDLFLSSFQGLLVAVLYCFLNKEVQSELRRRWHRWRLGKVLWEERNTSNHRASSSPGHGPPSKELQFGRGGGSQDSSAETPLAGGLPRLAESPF
method.notes: Glucagon cAMP Assay (Cisbio cAMP detection)
Type: cell-based
assay.conditions: CHOK1 cells stably transfected with the human glucagon receptor; block of glucagon induced cAMP production; Kb by modified Cheng-Prusoff equation
Listed compounds paired with reported log10 of Kb
experimental.readout: log10 of Kb (log10 of the value in nM)

compound	log10 of Kb
CCCC(Oc1cc(F)c(-n2cc(C(F)(F)F)cn2)c(F)c1)c1ccc(C(=O)NCCC(=O)O)cc1 (racemic)	2.51
CC1(C)CC(C(Nc2ccc(-n3cnc(C(F)(F)F)c3)nc2)c2ccc(C(=O)NCCC(=O)O)cc2)C1 (stereo not shown)	2.03
O=C(O)CCNC(=O)c1ccc([C@@H](Nc2ccc(-n3cc(C(F)(F)F)cn3)nc2)C2CCCCC2)cc1 (single isomer, unassigned) [Example 146]	1.32
CC(C)(C)c1cn(-c2ccc(NC(c3ccc(C(=O)NCCC(=O)O)cc3)C3CCCC3)cn2)cn1 (racemic)	1.63
Cc1cc(NC(CC(C)C)c2ccc(C(=O)NCCC(=O)O)cc2)cnc1-n1cc(C(F)(F)F)cn1 (racemic)	2.66
Cc1cc([C@@H](CC(C)C)Nc2ccc(C(=O)NCCC(=O)O)cn2)cc(C)c1-n1cc(C(F)(F)F)cn1	2.27
CCCC(Oc1ccc(-c2c(C)nn(C)c2C)cc1)c1ccc(C(=O)NCCC(=O)O)cc1 (racemic)	3.86
